B1: MYBL2 (parent)
chain: VKKSCWTEEEDRIICEAHKVLGNR

variants of: B1; assay: protein stability index of a GFP-peptide fusion (GPS, HEK-293T) (PSI 1-6); higher = more stable; details: c terminus: a fixed tail appended;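 note: lentivirally expressed fusions sorted by FACS into six bins by GFP to DsRed ratio, PSI derived from sequencing read proportions per bin multiplied by bin number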
Quantity Name: protein stability index
Number, no unit, nothing else.

>  <Sequence Entry>
VKKSCWTEEEDRIICAAHKVLGNR [E16A]

>  <protein stability index>
2.84

$$$$
>  <Sequence Entry>
VKKSCWTEEEDRIICERHKVLGNR [A17R]

>  <protein stability index>
3.51

$$$$
>  <Sequence Entry>
VKKSCWTEEEDRIICEDHKVLGNR [A17D]

>  <protein stability index>
4.36

$$$$

[ask] Given the entry VKKSCWTEEEDRIICEAHKKLGNR [V20K] , report its measured protein stability index.
[reply] 3.67

[ask] Lookup VKKSCWTEEEWRIICEAHKVLGNR [D11W]
[reply] 2.42

[ask] Lookup VKKSCWTEEEDRIICEAHPVLGNR [K19P]
[reply] 3.28

[ask] Lookup VKKSCWTEEEDRIICMAHKVLGNR [E16M]
[reply] 1.78

[ask] Lookup VKKSCWTEEEDRIICEAHKVLGNF [R24F]
[reply] 2.4

[ask] Lookup VKKSCWTEEEDRPICEAHKVLGNR [I13P]
[reply] 3.85

[ask] Lookup VKKSCWTEEEDFIICEAHKVLGNR [R12F]
[reply] 3.1

[ask] Lookup VKKSCWTEEEDRIIDEAHKVLGNR [C15D]
[reply] 4.16

[ask] Lookup VKKSCWTEEEDRIICEAHKVLNNR [G22N]
[reply] 3.32

[ask] Lookup VKKSCWTEEEDRIIAEAHKVLGNR [C15A]
[reply] 3.43

[ask] Lookup VKKSCWTEEEDRSICEAHKVLGNR [I13S]
[reply] 4.32

[ask] Lookup VKKSCWTEEEARIICEAHKVLGNR [D11A]
[reply] 2.95

[ask] Lookup VKKSCWTEEEDRIIEEAHKVLGNR [C15E]
[reply] 3.94

[ask] Lookup VKKSCWTEEEDRIICEAHKILGNR [V20I]
[reply] 2.75

[ask] Lookup VKKSCWTEEEDRIICEAHKCLGNR [V20C]
[reply] 3.84

[ask] Lookup VKKSCWTEEEDRWICEAHKVLGNR [I13W]
[reply] 2.47
